molecular target: WD repeat-containing protein 5 (WDR5), truncated construct, residues 24-334 (mouse, UniProt P61965 24-334); assay: ITC; peptide (0.5 to 1.0 mM) titrated into WDR5 protein (44.5 μM) in the cell; 20 °C; Buffer D (20 mM Tris-HCl, 200 mM NaCl, pH 7.5); single binding site model; details: both partners purified
quantity_kind: stoichiometry N

- binder: "GAARCRVASPQG (numbers count on: isoform MBD3C; also called MBD3C^F47A; source: synthetic peptide (GenScript)) [MBD3C_(40-51) (F47A) peptide]"
  quantity_kind: "stoichiometry N"
  quantitative_result: 1.34
- binder: "GAAKCRVFSPQG (numbers count on: isoform MBD3C; also called MBD3C^R43K; source: synthetic peptide (GenScript)) [MBD3C_(40-51) (R43K) peptide]"
  quantity_kind: "stoichiometry N"
  quantitative_result: 1.17
- binder: "GAARCRVHSPQG (numbers count on: isoform MBD3C; also called MBD3C^F47H; source: synthetic peptide (GenScript)) [MBD3C_(40-51) (F47H) peptide]"
  quantity_kind: "stoichiometry N"
  quantitative_result: 0.99
- binder: "GAARCRVFSPQG (numbers count on: isoform MBD3C; also called MBD3C peptide; MBD3C WIN motif; source: synthetic peptide (GenScript)) [MBD3C_(40-51) peptide (methyl-CpG binding domain 3 isoform C, WIN motif)]"
  quantity_kind: "stoichiometry N"
  quantitative_result: 1.06
- binder: "GAARCEVFSPQG (numbers count on: isoform MBD3C; also called MBD3C^R45E; source: synthetic peptide (GenScript)) [MBD3C_(40-51) (R45E) peptide]"
  quantity_kind: "stoichiometry N"
  quantitative_result: 1.25
